Test system: chondrocytic proteoglycan metabolism
Test: Modulation of the chondrocytic proteoglycan metabolism (PG stimulation)
Assay type: cell-based, bulls
Settings: Chondrocyte, 192 h; stimulation factor = proteoglycan content with active compound / untreated control; 10 μm test substance, 8 days, chondrocytes in agarose, Alcian Blue extinction at 610 nm; factor >1 = stimulation
result_type: fold induction at 10 µM
No unit in the answer, please; the number alone is enough.

molecule: C=CC(O)C/C(O)=C(\C#N)C(=O)Nc1ccc(C(F)(F)F)cc1 (stereo not shown)
fold induction at 10 µM: 1.7
//
molecule: C=C(C)C(O)C/C(O)=C(\C#N)C(=O)Nc1ccc(C(F)(F)F)cc1 (stereo not shown)
fold induction at 10 µM: 1.1

According to the records, this molecule CC(C)=CC(O)C/C(O)=C(\C#N)C(=O)Nc1ccc(C(F)(F)F)cc1 (stereo not shown) displays fold induction at 10 µM of 1.1

According to the records, this molecule N#C/C(C(=O)Nc1ccc(C(F)(F)F)cc1)=C(/O)CC(O)c1ccco1 (stereo not shown) displays fold induction at 10 µM of 1.1

According to the records, this molecule `CC(C)(O)C/C(O)=C(\C#N)C(=O)Nc1ccc(C(F)(F)F)cc1` displays fold induction at 10 µM of 1.8

According to the records, this molecule N#C/C(C(=O)Nc1ccc(C(F)(F)F)cc1)=C(/O)CC(O)c1cccnc1 (stereo not shown) displays fold induction at 10 µM of 1.2

According to the records, this molecule CC(O)C/C(O)=C(\C#N)C(=O)Nc1ccc(C(F)(F)F)cc1 (stereo not shown) displays fold induction at 10 µM of 1.5

According to the records, this molecule CC(O)(C/C(O)=C(\C#N)C(=O)Nc1ccc(C(F)(F)F)cc1)C1CC1 (stereo not shown) displays fold induction at 10 µM of 1.1

According to the records, this molecule N#C/C(C(=O)Nc1ccc(C(F)(F)F)cc1)=C(/O)CC(O)c1ccc2c(c1)OCO2 (stereo not shown) displays fold induction at 10 µM of 1.1

According to the records, this molecule COc1cc(C(O)C/C(O)=C(\C#N)C(=O)Nc2ccc(C(F)(F)F)cc2)cc(OC)c1OC (stereo not shown) displays fold induction at 10 µM of 1.1

* * *

Listed here are molecules together with their documented melting point.
Structures can show the parent of a compound that is named as a salt.
Kindly provide the numeric value in °C only, without the unit symbol.

See these solved cases before continuing.
molecule: CC(C)(O)C/C(O)=C(\C#N)C(=O)Nc1ccccc1
result_units: °C
endpoint_result: 103
//
molecule: C[C@@H](O)C/C(O)=C(\C#N)C(=O)Nc1ccc(C(F)(F)F)cc1 (as salt: salt) [Example 10a]
result_units: °C
endpoint_result: 156
//
molecule: N#C/C(C(=O)Nc1ccc(C(F)(F)F)cc1)=C(/O)CC(O)c1cccnc1 (centres unmarked)
result_units: °C
endpoint_result: 203

According to the records, this molecule N#C/C(C(=O)Nc1ccc(C(F)(F)F)cc1)=C(/O)CC(O)c1ccc(C(F)(F)F)cc1 (centres unmarked) displays melting point of 178

According to the records, this molecule CC(O)C/C(O)=C(\C#N)C(=O)Nc1ccccc1 (centres unmarked) displays melting point of 101

According to the records, this molecule CC(O)C/C(O)=C(\C#N)C(=O)Nc1ccc(Cl)cc1 (centres unmarked) displays melting point of 152

According to the records, this molecule N#C/C(C(=O)Nc1ccc(Cl)cc1)=C(/O)CC(O)c1ccccc1 (centres unmarked) displays melting point of 178

According to the records, this molecule COc1cc(C(O)C/C(O)=C(\C#N)C(=O)Nc2ccc(C(F)(F)F)cc2)cc(OC)c1OC (centres unmarked) displays melting point of 154

According to the records, this molecule CC(C)(O)C/C(O)=C(\C#N)C(=O)Nc1ccc(C(F)(F)F)cc1 [Example 2] displays melting point of 155

According to the records, this molecule Cc1ccc(C(O)C/C(O)=C(\C#N)C(=O)Nc2ccc(C(F)(F)F)cc2)cc1 (centres unmarked) [Example 14] displays melting point of 180

According to the records, this molecule Cc1cc(NC(=O)/C(C#N)=C(\O)CC(O)c2ccccc2)ccc1Cl (centres unmarked) displays melting point of 165

According to the records, this molecule `CC(C)(O)C/C(O)=C(\C#N)C(=O)NCCc1ccccc1` displays melting point of 81

According to the records, this molecule CC(O)C/C(O)=C(\C#N)C(=O)NCCc1ccccc1 (centres unmarked) displays melting point of 91

According to the records, this molecule C[C@H](O)C/C(O)=C(\C#N)C(=O)Nc1ccc(C(F)(F)F)cc1 (as salt: salt) [Example 10b] displays melting point of 157
